// reported normalized growth per item
Assay: chemical genetic growth profiling, strain panel (AID 1159580);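 further: tested at 20 µM; growth read once vehicle control cultures reached saturation at 30 °C; 1 = growth at the plate median or of vehicle wells; lower values mean less growth of the strain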
Details: S. cerevisiae deletion strains, growth OD, locus YDR137W, strain rgp1, stronger effect = lower value
About 2,000 (36%) of roughly 5,500 compounds were called active. Another 18% or so got no clear call; they are omitted. This is one part of the list.

Example cases with answers are listed next.
{"compound": "COc1cc2c(cc1OC)C(=O)OC2", "normalized growth": "0.967 (inactive)"}
{"compound": "O=C(O)c1c2ccccc2cc2ccccc12", "normalized growth": "0.965 (inactive)"}
{"compound": "OCCN1C[C@@H](O)[C@@H](O)C(O)C1CO (stereo partly specified)", "normalized growth": "1.01 (inactive)"}
{"compound": "O=C(O)c1cc2ccccc2[nH]1", "normalized growth": "0.938 (inactive)"}
{"compound": "COc1cc2c(cc1OC)Cc1cc(OC)c(OC)cc1Cc1cc(OC)c(OC)cc1C2", "normalized growth": "1.08 (inactive)"}

Just so you know, measured normalized growth for CCOC(=O)C(=O)C1(C(=O)OCC)Oc2cc(OC)cc(OC)c2C(=O)C1c1ccccc1 (stereo unspecified) came out at 0.904 (inactive)

---

// reported normalized growth per item
Assay: chemical genetic growth profiling, strain panel (AID 1159580);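 further: tested at 20 µM; growth read once vehicle control cultures reached saturation at 30 °C; 1 = growth at the plate median or of vehicle wells; lower values mean less growth of the strain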
Settings: S. cerevisiae deletion strains, growth OD, locus YOR144C, strain elg1, stronger effect = lower value
Out of some 5,500 compounds screened, about 2,000 (36%) were called active. Roughly 18% stayed inconclusive and do not appear here. This is one part of the list.
Answer with a bare number; do not write a unit.

Just so you know, measured normalized growth for CC(=O)OCC(=O)[C@H]1CCC2C3CCC4=CC(=O)CC[C@]4(C)C3CC[C@@]21C (stereo partly specified) came out at 0.929

Just so you know, measured normalized growth for CC(=O)NC1SCCC1=O (stereo unspecified) came out at 1

---

Assay: chemical genetic growth profiling, strain panel (AID 1159580);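 further: tested at 20 µM; growth read once vehicle control cultures reached saturation at 30 °C; 1 = growth at the plate median or of vehicle wells; lower values mean less growth of the strain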
Conditions: S. cerevisiae deletion strains, growth OD, locus YLR370C, strain arc18
The whole screen tested about 5,500 compounds, of which about 2,000 (36%) were called active. About 18% were inconclusive and are not listed. Cut-off read from the data, not from the text of the source: active = normalized growth mostly below about 0.91 (no sharp cut-off); inconclusive = no clear call, values can overlap the other calls; inactive = mostly above about 0.92. The list shows a part of the results.
Returns: one label drawn from Yes for active, No for inactive

Examples with answers:
{"givenSmiles": "CCOC(=O)C(C)(C)Oc1ccc(Cl)cc1", "labelValue": "No"}
{"givenSmiles": "CN1CCC(=C2c3ccccc3Sc3ccccc32)CC1", "labelValue": "No"}
{"givenSmiles": "Cc1cc(O)c(C)c(O)c1C(=O)O", "labelValue": "No"}
{"givenSmiles": "Cc1cc(O)c(C=O)c(O)c1C(=O)O", "labelValue": "No"}
{"givenSmiles": "O=C(O)c1c2ccccc2cc2ccccc12", "labelValue": "No"}

-- ask GET /call?item= O=C(O)c1cc2ccccc2[nH]1 returns the recorded outcome of this test.
-- reply No

-- ask GET /call?item= CCOC(=O)c1c(C)c(Cl)c(O)c(Cl)c1O returns the recorded outcome of this test.
-- reply Yes

---

Assay: chemical genetic growth profiling, strain panel (AID 1159580);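 further: tested at 20 µM; growth read once vehicle control cultures reached saturation at 30 °C; 1 = growth at the plate median or of vehicle wells; lower values mean less growth of the strain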
Conditions: S. cerevisiae deletion strains, growth OD, locus YOR061W, strain CKA2, stronger effect = lower value
Screen size: about 5,500 compounds; about 2,000 (36%) were called active. Roughly 18% stayed inconclusive and do not appear here. The list shows a part of the results.
measuredMetric: normalized growth
Answer with a bare number; do not write a unit.

Example cases with answers are listed next.
{"givenSmiles": "O=C(N/C=C/c1ccsc1)Nc1cc(C(F)(F)F)cc(C(F)(F)F)c1", "normalized growth": 0.726}
{"givenSmiles": "CCCCCCCCCCCCCCCC[N+](C)(C)C", "normalized growth": 0.0395}
{"givenSmiles": "CN1CCC(=C2c3ccccc3CC(=O)c3sccc32)CC1", "normalized growth": 1.01}
{"givenSmiles": "C[N+](C)(C)CCCCCC[N+](C)(C)C", "normalized growth": 0.995}

Turning now to a further molecule:
Just so you know, measured normalized growth for CC(=O)OCC[N+](C)(C)C came out at 0.994
